Where do these numbers come from? They come from ChEMBL document CHEMBL2390878.

- TARGET_OR_SYSTEM: Amine oxidase [flavin-containing] B (Homo sapiens, UniProt P27338)
- Sequence (P27338 whole entry): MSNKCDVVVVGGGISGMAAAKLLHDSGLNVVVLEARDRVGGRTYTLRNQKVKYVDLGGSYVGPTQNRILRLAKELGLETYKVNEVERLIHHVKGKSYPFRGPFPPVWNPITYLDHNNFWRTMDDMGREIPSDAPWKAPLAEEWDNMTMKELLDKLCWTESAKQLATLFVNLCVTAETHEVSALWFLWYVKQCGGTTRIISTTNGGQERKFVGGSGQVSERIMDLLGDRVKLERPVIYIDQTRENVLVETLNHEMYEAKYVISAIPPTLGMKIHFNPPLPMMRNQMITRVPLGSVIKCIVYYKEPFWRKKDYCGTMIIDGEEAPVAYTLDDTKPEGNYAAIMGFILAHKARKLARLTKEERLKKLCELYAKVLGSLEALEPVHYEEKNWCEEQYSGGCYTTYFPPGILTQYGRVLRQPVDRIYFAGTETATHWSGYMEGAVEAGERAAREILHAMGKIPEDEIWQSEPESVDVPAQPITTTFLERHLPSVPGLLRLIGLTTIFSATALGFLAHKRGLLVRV
- TEST: Inhibition of human recombinant MAO-B using benzylamine as substrate after 1 hr by fluorometric assay
MEASUREMENT_LABEL: pIC50
pIC50 here is simply -log10 of the concentration when that concentration is written in mol/L.

- INPUT_SMILES: "CC(=O)Nc1nc(CCc2ccc(Cc3c[nH]c(N)n3)cc2)cs1"
  TARGET_OR_SYSTEM: "Amine oxidase [flavin-containing] B (Homo sapiens, UniProt P27338)"
  pIC50: 4.96

The record that follows has no pIC50 shown yet.
Query string: Look up pIC50: CC(=O)Nc1nc(CCc2ccc(NC(=N)N)cc2)cs1
Result string: 4.22

====

- TARGET_OR_SYSTEM: Amine oxidase [copper-containing] 3 (Homo sapiens, UniProt Q16853)
- TEST: Inhibition of human VAP-1 expressed in CHO cells using [14C]-benzylamine as substrate preincubated for 30 mins prior to substrate addition measured after 1 hr by scintillation spectrometric analysis
pIC50: −log10 of the molar value.
MEASUREMENT_LABEL: pIC50

Worked set:
- INPUT_SMILES: "Nc1nc(Cc2ccccc2)c[nH]1"
  RESULT: 4.49
- INPUT_SMILES: "CC(=O)Nc1nc(CCc2ccc(Cc3c[nH]c(N)n3)cc2)cs1"
  RESULT: 7.72
- INPUT_SMILES: "c1ccc2[nH]cnc2c1"
  RESULT: "< 4.00"
- INPUT_SMILES: "c1ccc(NC2=NCCN2)cc1"
  RESULT: "< 4.00"

Query string: Which pIC50 value is on record for Cc1ccc2nc(N)[nH]c2c1 ?
Result string: < 4.00

Query string: // lookup pIC50 for Nc1nc(-c2ccccc2)c[nH]1
Result string: < 4.00

Query string: Param item = Nc1ncc(CCc2ccccc2)[nH]1 ; retrieve measured pIC50.
Result string: < 4.00

Query string: I would be grateful if you could share the reported pIC50 for CC(=O)Nc1nc(CCc2ccc(CCc3c[nH]c(N)n3)cc2)cs1 .
Result string: 5.66

Query string: Form field: reported pIC50 of CC(=O)Nc1nc(CCc2ccc(-c3c[nH]c(N)n3)cc2)cs1
Result string: 4.89

====

- TARGET_OR_SYSTEM: Amine oxidase [copper-containing] 3 (Rattus norvegicus, UniProt O08590)
- Sequence (O08590 whole entry): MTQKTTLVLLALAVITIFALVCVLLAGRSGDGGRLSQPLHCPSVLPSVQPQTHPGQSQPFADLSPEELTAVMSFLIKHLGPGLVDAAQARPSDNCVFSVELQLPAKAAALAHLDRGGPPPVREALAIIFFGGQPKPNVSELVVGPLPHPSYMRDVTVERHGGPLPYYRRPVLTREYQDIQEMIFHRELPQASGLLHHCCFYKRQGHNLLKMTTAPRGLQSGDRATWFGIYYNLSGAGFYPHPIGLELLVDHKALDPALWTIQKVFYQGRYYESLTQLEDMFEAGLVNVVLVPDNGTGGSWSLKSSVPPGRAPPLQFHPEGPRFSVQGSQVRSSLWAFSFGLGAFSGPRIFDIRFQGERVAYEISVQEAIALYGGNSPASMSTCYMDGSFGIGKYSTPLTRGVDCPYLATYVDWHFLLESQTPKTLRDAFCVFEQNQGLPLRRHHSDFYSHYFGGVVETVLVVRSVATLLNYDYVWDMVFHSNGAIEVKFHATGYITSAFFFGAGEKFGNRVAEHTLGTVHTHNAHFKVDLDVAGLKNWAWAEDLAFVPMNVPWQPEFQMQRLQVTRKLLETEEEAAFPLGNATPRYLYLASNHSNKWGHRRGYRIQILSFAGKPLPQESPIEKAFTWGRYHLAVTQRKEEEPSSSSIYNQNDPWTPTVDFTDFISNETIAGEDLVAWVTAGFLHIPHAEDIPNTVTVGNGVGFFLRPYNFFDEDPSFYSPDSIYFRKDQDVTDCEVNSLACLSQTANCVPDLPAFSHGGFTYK
- TEST: Inhibition of rat VAP-1 expressed in CHO cells using [14C]-benzylamine as substrate preincubated for 30 mins prior to substrate addition measured after 1 hr by scintillation spectrometric analysis
pIC50: −log10 of the molar value.
MEASUREMENT_LABEL: pIC50

- INPUT_SMILES: "c1ccc(NC2=NCCN2)cc1"
  RESULT: "< 4.00"

Query string: Query (compound): c1ccc2[nH]cnc2c1 ; field requested: pIC50
Result string: < 4.00

Query string: Requested field: pIC50. Item: Nc1nc(-c2ccccc2)c[nH]1
Result string: 4.36

====

- TARGET_OR_SYSTEM: Amine oxidase [copper-containing] 3 (Homo sapiens, UniProt Q16853)
- Sequence (Q16853 whole entry): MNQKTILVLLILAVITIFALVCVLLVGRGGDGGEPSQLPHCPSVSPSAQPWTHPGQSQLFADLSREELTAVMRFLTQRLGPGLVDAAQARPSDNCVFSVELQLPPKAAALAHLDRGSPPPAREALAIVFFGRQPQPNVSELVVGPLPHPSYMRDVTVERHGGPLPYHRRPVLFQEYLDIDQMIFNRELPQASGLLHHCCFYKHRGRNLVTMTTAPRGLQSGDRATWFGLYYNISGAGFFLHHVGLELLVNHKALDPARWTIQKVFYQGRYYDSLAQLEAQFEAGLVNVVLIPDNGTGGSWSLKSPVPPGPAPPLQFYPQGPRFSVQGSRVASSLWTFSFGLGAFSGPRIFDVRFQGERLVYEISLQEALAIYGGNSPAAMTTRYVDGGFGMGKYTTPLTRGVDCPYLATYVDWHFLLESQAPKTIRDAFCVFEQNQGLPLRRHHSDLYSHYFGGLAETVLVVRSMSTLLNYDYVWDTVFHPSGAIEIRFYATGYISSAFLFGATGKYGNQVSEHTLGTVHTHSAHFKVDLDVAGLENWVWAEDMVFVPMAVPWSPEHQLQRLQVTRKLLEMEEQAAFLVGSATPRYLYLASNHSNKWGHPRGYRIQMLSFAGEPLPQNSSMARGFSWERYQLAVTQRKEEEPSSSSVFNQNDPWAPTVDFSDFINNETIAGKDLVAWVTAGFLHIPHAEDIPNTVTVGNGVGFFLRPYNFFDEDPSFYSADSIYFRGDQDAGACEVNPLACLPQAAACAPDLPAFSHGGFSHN
- TEST: Inhibition of human VAP-1 expressed in CHO cells using [14C]-benzylamine as substrate preincubated for 30 mins prior to substrate addition measured after 1 hr by scintillation spectrometric analysis
MEASUREMENT_LABEL: IC50

Recorded IC50, per entry:
- INPUT_SMILES: "Cc1cccc2[nH]c(N)nc12"
  TARGET_OR_SYSTEM: "Amine oxidase [copper-containing] 3 (Homo sapiens, UniProt Q16853)"
  IC50: "> 100 µM"
- INPUT_SMILES: "Nc1nc2ccccc2[nH]1"
  TARGET_OR_SYSTEM: "Amine oxidase [copper-containing] 3 (Homo sapiens, UniProt Q16853)"
  IC50: "4.1 µM"
- INPUT_SMILES: "Nc1cc2ccccc2[nH]1"
  TARGET_OR_SYSTEM: "Amine oxidase [copper-containing] 3 (Homo sapiens, UniProt Q16853)"
  IC50: "> 100 µM"

Next molecule, IC50 to be filled in.
Query string: Fill in the blank: the reported IC50 of NC1=NCCN1c1ccccc1 is ____.
Result string: > 100 µM

====

- TARGET_OR_SYSTEM: Amine oxidase [copper-containing] 3 (Rattus norvegicus)
- Sequence (O08590 whole entry): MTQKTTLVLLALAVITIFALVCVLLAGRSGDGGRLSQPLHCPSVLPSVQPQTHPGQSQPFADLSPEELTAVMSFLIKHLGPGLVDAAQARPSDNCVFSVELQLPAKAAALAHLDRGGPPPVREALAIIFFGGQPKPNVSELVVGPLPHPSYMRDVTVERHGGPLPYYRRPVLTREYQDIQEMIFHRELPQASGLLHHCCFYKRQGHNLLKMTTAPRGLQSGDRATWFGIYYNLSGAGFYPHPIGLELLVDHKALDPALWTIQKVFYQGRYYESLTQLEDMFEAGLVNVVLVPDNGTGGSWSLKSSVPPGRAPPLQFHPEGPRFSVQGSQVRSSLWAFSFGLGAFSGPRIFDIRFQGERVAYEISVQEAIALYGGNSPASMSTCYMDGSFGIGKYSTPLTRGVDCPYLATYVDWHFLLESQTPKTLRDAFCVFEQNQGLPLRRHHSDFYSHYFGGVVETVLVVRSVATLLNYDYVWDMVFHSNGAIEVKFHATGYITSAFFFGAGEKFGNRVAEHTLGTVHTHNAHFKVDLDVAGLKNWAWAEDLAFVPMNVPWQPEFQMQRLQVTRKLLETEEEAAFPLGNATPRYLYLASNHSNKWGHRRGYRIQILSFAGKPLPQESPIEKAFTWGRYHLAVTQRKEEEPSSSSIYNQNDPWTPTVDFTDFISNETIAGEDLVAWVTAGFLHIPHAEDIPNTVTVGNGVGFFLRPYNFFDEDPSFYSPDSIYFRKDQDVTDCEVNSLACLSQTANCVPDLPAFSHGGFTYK
- TEST: Inhibition of rat VAP-1 expressed in CHO cells using [14C]-benzylamine as substrate preincubated for 30 mins prior to substrate addition measured after 1 hr by scintillation spectrometric analysis
MEASUREMENT_LABEL: IC50

In the examples that follow, each entry is paired with its recorded IC50.
- INPUT_SMILES: "Nc1nc(Cc2ccccc2)c[nH]1"
  IC50: "0.42 µM"
- INPUT_SMILES: "NC1=NCCN1c1ccccc1"
  IC50: "> 100 µM"

We now examine a further compound.
Query string: For NCc1nc2ccccc2[nH]1 , what is its reported IC50?
Result string: > 100 µM
